Biological target: T1, human IL-33 (R&D Systems, #3625-IL-010/CF) (human, UniProt O95760 112-270)
T1 sequence (looked up): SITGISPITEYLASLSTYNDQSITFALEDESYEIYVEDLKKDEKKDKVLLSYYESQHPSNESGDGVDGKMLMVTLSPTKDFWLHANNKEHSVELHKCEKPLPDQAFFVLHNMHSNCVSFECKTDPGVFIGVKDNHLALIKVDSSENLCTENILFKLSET
Test: cell-based or functional assay
Could you please report measured IC50; SEAP reporter (OD 620), HEK-BLUE IL-33/IL-1beta cells, 10 pM hIL-33 for the items listed next?
Give bare numbers, in M.

Field: example entries. Status: answers known.
{"columns": ["binder", "units_of_measure", "obs_value"],
 "data": [
  ["H4H9629P (antibody, IgG4, V domains shown, also called RG4) VH: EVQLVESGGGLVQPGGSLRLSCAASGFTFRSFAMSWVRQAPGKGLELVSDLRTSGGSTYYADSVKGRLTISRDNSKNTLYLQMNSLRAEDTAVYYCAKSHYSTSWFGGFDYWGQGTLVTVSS VL: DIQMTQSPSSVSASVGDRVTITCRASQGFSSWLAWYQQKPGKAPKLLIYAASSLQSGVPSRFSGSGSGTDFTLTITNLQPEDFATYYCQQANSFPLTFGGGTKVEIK", "M", "3.3e-11"],
  ["H1M9566N (antibody, IgG1, V domains shown, also called RG2) VH: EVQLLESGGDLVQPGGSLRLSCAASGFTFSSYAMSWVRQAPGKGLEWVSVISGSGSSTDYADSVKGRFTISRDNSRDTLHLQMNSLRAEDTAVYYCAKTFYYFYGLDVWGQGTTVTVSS VL: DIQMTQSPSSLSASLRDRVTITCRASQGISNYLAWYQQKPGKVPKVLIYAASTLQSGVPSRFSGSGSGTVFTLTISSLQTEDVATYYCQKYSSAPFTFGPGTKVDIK", "M", "1.7e-08"]
]}

Please look at the following binder next.
q: Tell me the measured IC50; SEAP reporter (OD 620), HEK-BLUE IL-33/IL-1beta cells, 10 pM hIL-33 of H4H9633P (antibody, IgG4, V domains shown, also called RG5) VH: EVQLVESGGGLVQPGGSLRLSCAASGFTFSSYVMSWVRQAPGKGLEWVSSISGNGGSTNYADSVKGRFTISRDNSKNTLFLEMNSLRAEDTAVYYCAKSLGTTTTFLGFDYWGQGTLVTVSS VL: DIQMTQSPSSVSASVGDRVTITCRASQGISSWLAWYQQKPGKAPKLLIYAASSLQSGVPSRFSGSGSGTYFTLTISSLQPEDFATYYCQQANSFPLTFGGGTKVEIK , please.
a: 3.7e-09

Recorded values, source patent US20190092852A1.
